Data credit: patent US20030148956A1

Exercise: state measured CRF2R EC50 for each of the binders provided.
Target: T1, corticotropin releasing factor 2 receptor
T1 sequence (Q13324 whole entry, species assumed, looked up): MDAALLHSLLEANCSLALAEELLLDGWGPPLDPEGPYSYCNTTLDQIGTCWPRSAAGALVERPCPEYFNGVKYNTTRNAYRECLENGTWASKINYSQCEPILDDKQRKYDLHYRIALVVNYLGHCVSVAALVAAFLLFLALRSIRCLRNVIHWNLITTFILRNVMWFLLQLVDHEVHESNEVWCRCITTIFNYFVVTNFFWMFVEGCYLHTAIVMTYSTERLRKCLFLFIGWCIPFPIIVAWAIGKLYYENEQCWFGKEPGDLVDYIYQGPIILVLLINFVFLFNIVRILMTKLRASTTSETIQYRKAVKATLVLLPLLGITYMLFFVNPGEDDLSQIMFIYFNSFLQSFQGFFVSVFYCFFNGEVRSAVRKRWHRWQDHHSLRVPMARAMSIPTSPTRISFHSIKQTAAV
Assay: cell-based or functional assay
Ends that are not written are not given here.
One number for each entry, in nM.

Example results:
>  <binder>
DNPSLSIDLPLLLLRTLLELEKTQSQRERAEQNARIFARV-NH2 [SEQ ID NO 341]

>  <CRF2R EC50, nM>
8.83

$$$$
>  <binder>
DNPSLSIDVPFFLLRTLLELEKTQSQRERAEQNARIFARV-NH2 [SEQ ID NO 386]

>  <CRF2R EC50, nM>
8.7

$$$$
>  <binder>
ZGPPISIDLPQILLRKVIEIEKQEKEKQQAANNALLLATI (C-terminal amide) [SEQ ID NO 299]

>  <CRF2R EC50, nM>
46.4

$$$$
>  <binder>
ZGPPISIDVPYQLLRKVIEIEKQEKEKQQAANNARLLDTI (C-terminal amide) [SEQ ID NO 374]

>  <CRF2R EC50, nM>
15.8

$$$$

// batch mode: one CRF2R EC50 value per listed entry
1. ZGPPISIDLPFQLLRLLIEIEKQEKEKQQAANNALLLATI (C-terminal amide) [SEQ ID NO 360]
2. ZGPPISIDLPFQLLRILIEIEKQEKEKQQAANNALLLAT (C-terminal amide) [SEQ ID NO 358]
3. ZGPPISIDLPHFLLRKMIEIEKQEKEKQQAANNRLLLDTI (C-terminal amide) [SEQ ID NO 219]
4. ZGPPISIDLPFHLLRKMIEIEKQEKEKQQAANNALLLATI (C-terminal amide) [SEQ ID NO 229]
5. ZGPPISIDLPYHLLRKVIEIEKQEKEKQQAANNALLLDTI (C-terminal amide) [SEQ ID NO 312]
6. ZGPPISIDLPQWLLRKMIEIEKQEKEKQQAANNRLLLDTI (C-terminal amide) [SEQ ID NO 213]

Reply:
6.12
5.56
7.8
10.3
14.1
22.3

// batch mode: one CRF2R EC50 value per listed entry
1. ZGPPISIDLPYALLRKMIEIEKQEKEKQQAANNRLLLDTI (not fully specified; C-terminal amide) [SEQ ID NO 309]
2. ZGPPISIDLPFQLLRILIEIEKQEKEKQQAANNRLLLDTI (C-terminal amide) [SEQ ID NO 255]
3. IVLSLDVPIGLLQILLEQARARAAREQATTNARILARVM-NH2 [SEQ ID NO 356]
4. DNPSLSIDLPLFLLRTLLELEKTQSQRERAEQNAIIFASV-NH2 [SEQ ID NO 343]

Reply:
5.55
7
83
13.6
